Source: patent US12466813B2

- EXPERIMENTAL SYSTEM: RING1B-BMI1 (Homo sapiens, UniProt Q99496)
- ASSAY INFO: KD classes of Table A (direct binding to Ring1B-Bmi1)
- EXPERIMENTAL CONDITIONS: class given in Table A
ATTRIBUTE MEASURED: Kd

Known results for compounds:
CCc1c(-c2cccc3[nH]ccc23)[nH]c(C(=O)O)c1-c1cccc(Cl)c1Cl [compound 84]    20 to 50 µM
CC(CF)c1c(-c2cccc3[nH]ccc23)[nH]c(C(=O)O)c1-c1cccc2[nH]ccc12 (stereo not shown) [compound 32]    < 20 µM
CC(C)c1c(-c2cc(F)cc3[nH]ccc23)[nH]c(C(=O)O)c1-c1cccc2[nH]c(CS(N)(=O)=O)cc12 [compound 229]    < 20 µM
CC(C)c1c(-c2cc(F)cc3[nH]ccc23)[nH]c(C(=O)O)c1-c1ccc2[nH]ccc2c1 [compound 38]    < 20 µM
CCOc1cccc(-c2ccc(C(=O)O)[nH]2)c1 [compound 148]    > 100 µM
CCc1c(-c2cccc3[nH]ccc23)[nH]c(C(=O)O)c1-c1ccccc1 [compound 89]    20 to 50 µM
CC(C)c1c(-c2cc(F)cc3[nH]ccc23)[nH]c(C(=O)O)c1-c1cccc2nc(NS(C)(=O)=O)sc12 [compound 232]    < 20 µM
Nc1cccc(-c2ccc(C(=O)O)[nH]2)c1 [compound 125]    > 100 µM
CC(C)c1c(-c2cccc3[nH]ccc23)c(C(=O)O)n2c1-c1cc(F)cc3ccn(c13)C(=O)C2 [compound 274]    < 20 µM
CCc1c(-c2cccc3[nH]ccc23)[nH]c(C(=O)O)c1-c1ccc([N+](=O)[O-])cc1 [compound 114]    > 100 µM

Below is a list of compounds. For each, state its recorded Kd.
1. C#CCCCCC(=O)NCCc1c[nH]c2cc(F)cc(-c3[nH]c(C(=O)O)c(-c4c(Cl)ccc5[nH]ccc45)c3C(C)C)c12 [compound 67]
2. CC(C)c1c(-c2cccc3[nH]ccc23)c(C(=O)O)n2c1-c1cc(F)cc3ccn(c13)[C@@H](C)C2 [compound 271]
3. CC(C)c1c(-c2cc(F)cc3[nH]ccc23)[nH]c(C(=O)O)c1-c1cccc2ncsc12 [compound 204]
4. CC(C)c1c(-c2cc(F)cc3[nH]ccc23)[nH]c(C(=O)O)c1-c1cccc2[nH]cc(CCO)c12 [compound 187]

["< 20 µM", "< 20 µM", "< 20 µM", "< 20 µM"]

Batch of 2 compounds: report Kd for each.
1. CCc1c(-c2cccc3c2ccn3CCO)[nH]c(C(=O)O)c1-c1ccc(OC)cc1Cl [COMPOUND 103]
2. CCc1c(-c2cccc3[nH]ccc23)[nH]c(C(=O)O)c1-c1cccc2[nH]ccc12 [compound 20]

["> 100 µM", "< 20 µM"]

###

- EXPERIMENTAL SYSTEM: RING1B-BMI1 (Homo sapiens, UniProt Q99496)
- Sequence (Q99496 1-336): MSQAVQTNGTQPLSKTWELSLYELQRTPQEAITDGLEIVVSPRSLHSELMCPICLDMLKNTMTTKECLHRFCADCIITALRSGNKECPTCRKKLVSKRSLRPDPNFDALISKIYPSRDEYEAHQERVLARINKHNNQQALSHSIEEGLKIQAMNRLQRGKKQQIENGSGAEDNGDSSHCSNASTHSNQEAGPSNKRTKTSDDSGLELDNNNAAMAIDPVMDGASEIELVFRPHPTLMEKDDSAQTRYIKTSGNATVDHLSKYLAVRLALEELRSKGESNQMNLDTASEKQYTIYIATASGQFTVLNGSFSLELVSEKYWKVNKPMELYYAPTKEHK
- Sequence (P35226 1-326 partner): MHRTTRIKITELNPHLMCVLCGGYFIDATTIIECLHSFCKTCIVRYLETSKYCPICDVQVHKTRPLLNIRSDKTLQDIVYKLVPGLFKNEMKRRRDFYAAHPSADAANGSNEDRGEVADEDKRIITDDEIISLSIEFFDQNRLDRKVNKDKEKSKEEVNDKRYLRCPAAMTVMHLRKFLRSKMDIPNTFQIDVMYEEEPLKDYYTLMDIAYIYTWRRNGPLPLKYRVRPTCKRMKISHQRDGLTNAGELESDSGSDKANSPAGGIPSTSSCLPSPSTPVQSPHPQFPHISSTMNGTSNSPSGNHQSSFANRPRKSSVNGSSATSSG
- ASSAY INFO: KD classes of Table A (direct binding to Ring1B-Bmi1)
- EXPERIMENTAL CONDITIONS: class given in Table A
ATTRIBUTE MEASURED: Kd

Previously resolved entries follow.
O=C(O)c1ccc(-c2ccccc2OCc2ccccc2)[nH]1 [compound 138]    > 100 µM
CC(C)c1c(-c2cc(F)cc3[nH]ccc23)[nH]c(C(N)=O)c1-c1cccc2[nH]c(C(=O)O)cc12 [compound 191]    < 20 µM
Cc1cccc(-c2ccc(C(=O)O)[nH]2)c1 [compound 128]    > 100 µM

// for each compound in input: emit Kd
1. O=C(O)c1ccc(-c2cccc3[nH]ccc23)[nH]1 [compound 134]
2. CC(C)c1c(-c2cc(F)cc3[nH]ccc23)[nH]c(C(=O)O)c1-c1cccc(Oc2nccs2)c1 [compound 64]

> 100 µM
< 20 µM
